measurement context: in acetone, 288.15 K
property label: solubility (mole fraction)

INSERT INTO assay_data (smiles_entry, property_label, observed) VALUES
  ('N#CCNC(=O)c1cnccc1C(F)(F)F', 'solubility (mole fraction)', 0.041);

###

measurement context: in n-butanol, 308.15 K
property label: solubility (mole fraction)

INSERT INTO measurements (smiles_entry, observed) VALUES
  ('N#CCNC(=O)c1cnccc1C(F)(F)F', 0.00906);

###

measurement context: in methanol, 298.15 K
property label: solubility (mole fraction)

INSERT INTO assay_data (smiles_entry, observed) VALUES
  ('N#CCNC(=O)c1cnccc1C(F)(F)F', 0.0168);
